tested on: Septoria tritici; assay: B-9. Septoria tritici in vitro cell test; type: cell-based; conditions: Zymoseptoria tritici, 168 h; 20 ppm of active ingredient; 7 days incubation; liquid culture, absorbance; read-out: efficacy (inhibition of fungal growth)
Readout type: inhibition at 20 ppm

[[record]]
compound = "Cc1cc(Cl)ccc1C(F)(F)CNC(=O)c1c(Oc2cccc(Cl)c2F)nnc2c1CCC2"
result = "80 to 89%"

[[record]]
compound = "O=C(NCC(F)(F)c1ccc(Cl)cc1Cl)c1c(Oc2cccc(C3CC3)c2F)nnc2c1CCCC2"
result = "90 to 100%"

[[record]]
compound = "Cc1cc(Br)ccc1C(F)(F)CNC(=O)c1c(Oc2cccc(Cl)c2F)nnc2c1CCC2"
result = "90 to 100%"

[[record]]
compound = "O=C(NOCc1ccc(C(F)(F)F)cc1)c1c(Oc2cccc(C(F)(F)F)c2)nnc2ccccc12"
result = "80 to 89%"

[[record]]
compound = "O=C(NCC(F)c1ccc(Cl)cc1Cl)c1c(Oc2cccc(Cl)c2F)nnc2c1CCC2 (centres unmarked)"
result = "90 to 100%"

[[record]]
compound = "O=C(NCC(F)c1ccc(Cl)cc1Cl)c1c(Oc2cccc(C(F)(F)F)c2)nnc2c1CCCC2 (centres unmarked)"
result = "90 to 100%"


Data point: Cc1ccc([C@@H](F)CNC(=O)c2c(Oc3cccc(C(F)(F)F)c3)nnc3ccccc23)cc1C (racemic) ; inhibition at 20 ppm = 90 to 100%

Data point: "Cc1ccc(C(F)(F)CNC(=O)c2c(Oc3cccc(C(F)(F)F)c3)nnc3cc(C4CC4)ccc23)cc1C" ; inhibition at 20 ppm = 90 to 100%

###

system: Colletotrichum lindemuthianum; experiment: B-8. Colletotrichum lindemuthianum in vitro cell test; type: cell-based; details: 144 h, 20 ppm of active ingredient, 6 days incubation, liquid culture, absorbance, read-out: efficacy (inhibition of fungal growth)
Readout type: inhibition at 20 ppm

[[record]]
compound = "Cc1ccc2c(c1)CCC[C@@H]2NC(=O)c1c(Oc2cccc(C(F)(F)F)c2)nnc2ccccc12 (racemic) [I-078]"
experimental_target = "Colletotrichum lindemuthianum"
readout_type = "inhibition at 20 ppm"
result = "90 to 100%"

[[record]]
compound = "C=Cc1ccc(C(F)(F)CNC(=O)c2c(Oc3cccc(C(F)(F)F)c3)nnc3ccccc23)c(Cl)c1 [I-064]"
experimental_target = "Colletotrichum lindemuthianum"
readout_type = "inhibition at 20 ppm"
result = "90 to 100%"

[[record]]
compound = "COc1ccc2c(c1)[C@@H](NC(=O)c1c(Oc3cccc(C(F)(F)F)c3)nnc3ccccc13)[C@@H](OC)CC2 (mixture of isomers) [I-180]"
experimental_target = "Colletotrichum lindemuthianum"
readout_type = "inhibition at 20 ppm"
result = "90 to 100%"

[[record]]
compound = "Cc1ccc(C(F)(F)CNC(=O)c2c(Oc3cccc(C(F)(F)F)c3)nnc3c2CCCC3)c(Cl)c1 [I-239]"
experimental_target = "Colletotrichum lindemuthianum"
readout_type = "inhibition at 20 ppm"
result = "90 to 100%"

[[record]]
compound = "Cc1ccc([C@@H](F)CNC(=O)c2c(Oc3cccc(C(F)(F)F)c3)cnc3ccccc23)cc1C (racemic) [I-056]"
experimental_target = "Colletotrichum lindemuthianum"
readout_type = "inhibition at 20 ppm"
result = "90 to 100%"

[[record]]
compound = "Cc1ccc(C(F)(F)CNC(=O)c2c(Oc3cccc(C(F)(F)F)c3)nnc3c2CCCCC3)c(C)c1 [I-113]"
experimental_target = "Colletotrichum lindemuthianum"
readout_type = "inhibition at 20 ppm"
result = "90 to 100%"

[[record]]
compound = "COc1ccc(CCN(C(C)=O)C(=O)c2c(Oc3cccc(C(F)(F)F)c3)nnc3ccccc23)cc1 [I-090]"
experimental_target = "Colletotrichum lindemuthianum"
readout_type = "inhibition at 20 ppm"
result = "80 to 89%"

[[record]]
compound = "O=C(NCCc1ccc2c(c1)OCO2)c1c(Oc2cccc(C(F)(F)F)c2)nnc2ccccc12 [I-092]"
experimental_target = "Colletotrichum lindemuthianum"
readout_type = "inhibition at 20 ppm"
result = "90 to 100%"


Data point: O=C(NC[C@H](F)c1ccc(Br)cc1Cl)c1c(Oc2cccc(C(F)F)c2)nnc2ccccc12 (racemic) [I-029] ; inhibition at 20 ppm = 90 to 100%
